Molecular target: beta-catenin/TCF4 engagement (Homo sapiens)
Construct: expressed in transfected cells; host or cells: HEK293
Sequence (P35222 whole entry): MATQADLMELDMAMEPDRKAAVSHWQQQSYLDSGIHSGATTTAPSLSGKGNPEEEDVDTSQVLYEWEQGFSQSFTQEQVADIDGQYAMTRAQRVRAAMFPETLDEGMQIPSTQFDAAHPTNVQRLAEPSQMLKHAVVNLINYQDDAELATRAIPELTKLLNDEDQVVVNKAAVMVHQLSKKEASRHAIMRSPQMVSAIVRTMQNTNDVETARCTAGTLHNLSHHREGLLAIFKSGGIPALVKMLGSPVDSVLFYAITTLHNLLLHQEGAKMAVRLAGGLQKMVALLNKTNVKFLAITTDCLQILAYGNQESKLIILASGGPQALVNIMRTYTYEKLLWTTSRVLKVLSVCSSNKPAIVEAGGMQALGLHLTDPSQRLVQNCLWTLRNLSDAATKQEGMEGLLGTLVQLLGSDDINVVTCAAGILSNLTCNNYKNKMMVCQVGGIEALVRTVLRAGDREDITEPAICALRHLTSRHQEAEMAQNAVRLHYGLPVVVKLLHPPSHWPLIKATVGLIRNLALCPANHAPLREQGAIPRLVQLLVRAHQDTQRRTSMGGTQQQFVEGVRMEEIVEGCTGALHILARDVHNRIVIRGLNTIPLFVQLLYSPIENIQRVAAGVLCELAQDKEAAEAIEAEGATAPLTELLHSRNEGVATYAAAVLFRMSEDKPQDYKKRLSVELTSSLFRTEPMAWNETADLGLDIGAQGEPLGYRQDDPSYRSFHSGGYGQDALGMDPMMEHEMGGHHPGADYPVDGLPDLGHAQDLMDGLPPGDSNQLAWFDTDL
Test: Nano-BRET target engagement assay (B-cat-Halo & TCF4-Luc in HEK293 cells)
Format: cell-based
Conditions: read-out: NanoBRET Abs IC50
Measure Name: IC50

Exam item: Look up IC50 of CC(=O)N1CCC[C@]12CC=CCCCC1(CCCC=CCCCOC(=O)N3CC[C@@](C(=O)N[C@@H](Cc4ccsc4)C(=O)N[C@@H](Cc4csc5ccccc45)C(=O)N[C@@H](C)C(N)=O)(C3)NC(=O)[C@H](CC(N)=O)NC(=O)[C@H](Cc3ccccc3)NC(=O)[C@H](C)NC(=O)[C@H](C)NC(=O)[C@H]([C@@H](C)O)NC(=O)[C@H](CC(N)=O)NC1=O)NC(=O)[C@H](CC(C)(C)C)NC(=O)[C@H](CC(=O)O)NC2=O (some centres unmarked) [I-2142] and report it.
Marked response: > 20 µM

Exam item: Look up IC50 of CC(=O)N1CCC[C@]12CC=CCCCC1(CCCC=CCCCOC(=O)N3CC[C@@](C(=O)N[C@@H](Cc4ccsc4)C(=O)N[C@@H](Cc4csc5ccccc45)C(=O)N[C@@H](CCC(N)=O)C(N)=O)(C3)NC(=O)[C@H](CCO)NC(=O)[C@H](Cc3cccc(C(=O)O)c3)NC(=O)[C@H](C)NC(=O)[C@H](C)NC(=O)[C@H](CCc3ccc(O)cc3)NC(=O)[C@H](CC(=O)O)NC1=O)NC(=O)[C@H](CC(C)(C)C)NC(=O)[C@H](CC(=O)O)NC2=O (some centres unmarked) [I-2117] and report it.
Marked response: > 20 µM

Exam item: Look up IC50 of CC(=O)N1CCC[C@]12CC=CCCCC1(CCCC=CCCCOC(=O)N3CC[C@@](C(=O)N[C@@H](Cc4ccccc4Cl)C(=O)N[C@@H](Cc4csc5ccccc45)C(=O)N[C@@H](CO)C(N)=O)(C3)NC(=O)[C@H](CC(C)C)NC(=O)[C@H](Cc3ccccc3)NC(=O)[C@H](C)NC(=O)C(C)(C)NC(=O)[C@H](Cc3cccc(C(=O)O)c3)NC(=O)[C@H](CC(=O)O)NC1=O)NC(=O)[C@H](CC(C)(C)C)NC(=O)[C@H](CC(=O)O)NC2=O (some centres unmarked) [I-1900] and report it.
Marked response: > 20 µM

Exam item: Look up IC50 of CC(=O)N1CCC[C@]12CC=CCCCC1(CCCC=CCCCOC(=O)N3CC[C@@](C(=O)N[C@@H](Cc4ccsc4)C(=O)N[C@@H](Cc4csc5ccccc45)C(=O)N[C@@H](Cc4c[nH]cn4)C(N)=O)(C3)NC(=O)[C@H](CCC(N)=O)NC(=O)[C@H](Cc3ccccc3)NC(=O)[C@H](C)NC(=O)[C@H](C)NC(=O)[C@H](CC(=O)O)NC(=O)[C@H](CC(=O)O)NC1=O)NC(=O)[C@H](CC(C)(C)C)NC(=O)[C@H](CC(=O)O)NC2=O (some centres unmarked) [I-771] and report it.
Marked response: 37.3 µM

Exam item: Look up IC50 of CC(=O)N1CCC[C@]12CCCC[C@@](C)(C(=O)N[C@@H](CC(=O)O)C(=O)N[C@@H](CC(=O)O)C(=O)N[C@@H](C)C(=O)N[C@@H](C)C(=O)N[C@@H](Cc1ccccc1)C(=O)N[C@@H](CC(C)C)C(=O)NC(C)(C)C(=O)N[C@@H](Cc1ccsc1)C(=O)N[C@@H](Cc1csc3ccccc13)C(=O)N[C@@H](CCC(N)=O)C(N)=O)NC(=O)[C@H](CC(C)(C)C)NC(=O)[C@H](CC(=O)O)NC2=O [I-1983] and report it.
Marked response: > 20 µM

====

Assay: Solubility in PBS
Assay type: physicochemical
Conditions: Solubility (uM)
Measure Name: Solubility (µM)
Reply numerically in µM, unit not repeated.

Exam item: Look up Solubility of CC(=O)N1CCC[C@]12CC=CCCCC1(CCCC=CCCCOC(=O)N3CC[C@@](C(=O)N[C@@H](Cc4ccsc4)C(=O)N[C@@H](Cc4csc5ccccc45)C(=O)N[C@@H](CCC(N)=O)C(N)=O)(C3)NC(=O)[C@H](CC(C)C)NC(=O)[C@H](Cc3ccccc3)NC(=O)[C@H](C)NC(=O)[C@H](C)NC(=O)[C@H](CC(=O)O)NC(=O)[C@H](CC(N)=O)NC1=O)NC(=O)[C@H](CC(C)(C)C)NC(=O)[C@H](CC(=O)O)NC2=O (some centres unmarked) and report it.
Marked response: 11

Exam item: Look up Solubility of CC[C@H](C)[C@@H]1NC(=O)[C@H](CC(=O)O)NC(=O)[C@]2(CC=CCCCC3(CCCC=CCCCCCC[C@@](C)(C(=O)N[C@@H](Cc4ccccc4)C(=O)N[C@@H](Cc4csc5ccccc45)C(=O)N[C@@H](Cc4c[nH]cn4)C(N)=O)NC(=O)[C@H](CC(N)=O)NC(=O)[C@H](Cc4ccccc4)NC(=O)[C@H](C)NC(=O)[C@H](C)NC(=O)[C@H](CCC(=O)O)NC(=O)[C@H](CC(=O)O)NC3=O)NC1=O)CCCN2C(C)=O (some centres unmarked) and report it.
Marked response: 36

Exam item: Look up Solubility of CC(=O)N1CCC[C@]12CC=CCCCC1(CCCC=CCCCOC(=O)N3CC[C@@](C(=O)N[C@@H](Cc4ccccc4C)C(=O)N[C@@H](Cc4csc5ccccc45)C(=O)N[C@@H](Cc4c[nH]cn4)C(N)=O)(C3)NC(=O)[C@H](CC(N)=O)NC(=O)[C@H](Cc3ccccc3)NC(=O)[C@H](C)NC(=O)[C@H](C)NC(=O)[C@H](CC(=O)O)NC(=O)[C@H](CC(=O)O)NC1=O)NC(=O)[C@H](CC(C)(C)C)NC(=O)[C@H](CC(=O)O)NC2=O (some centres unmarked) and report it.
Marked response: 38

Exam item: Look up Solubility of CC(=O)N1CCC[C@]12CC=CCCCC1(CCCC=CCCCOC(=O)N3CC[C@@](C(=O)N[C@@H](Cc4ccccc4Cl)C(=O)N[C@@H](Cc4csc5ccccc45)C(=O)N[C@@H](CO)C(N)=O)(C3)NC(=O)[C@H](CO)NC(=O)[C@H](Cc3ccccc3)NC(=O)[C@H](C)NC(=O)[C@H](C)NC(=O)[C@H](CC(=O)O)NC(=O)[C@H](CC(=O)O)NC1=O)NC(=O)[C@H](Cc1ccccc1)NC(=O)[C@H](CC(=O)O)NC2=O (some centres unmarked) and report it.
Marked response: 48

Exam item: Look up Solubility of CC(=O)N1CCC[C@]12CC=CCCCC1(CCCC=CCCCOC(=O)N3CC[C@@](C(=O)N[C@@H](Cc4ccsc4)C(=O)N[C@@H](Cc4csc5ccccc45)C(N)=O)(C3)NC(=O)[C@H](CC(N)=O)NC(=O)[C@H](Cc3ccccc3)NC(=O)[C@H](C)NC(=O)[C@H](C)NC(=O)[C@H](CCC(N)=O)NC(=O)[C@H](CC(=O)O)NC1=O)NC(=O)[C@H](CC(C)(C)C)NC(=O)[C@H](CC(=O)O)NC2=O (some centres unmarked) and report it.
Marked response: 18
